EXPERIMENTAL_DETAILS: Half life in cynomolgus monkey
Format: ADME, organism-based, Macaca fascicularis
TEST_CONDITIONS: in vivo
PROPERTY: half-life (h)
# output: bare number, implied unit h

Reported half-life of CC(C)(C)NS(=O)(=O)c1cncc(-c2ccn3nc(N)nc3c2)c1 : 6.1

---

TARGET_SYSTEM: Receptor-interacting serine/threonine-protein kinase 2 (Homo sapiens)
Sequence (O43353 whole entry): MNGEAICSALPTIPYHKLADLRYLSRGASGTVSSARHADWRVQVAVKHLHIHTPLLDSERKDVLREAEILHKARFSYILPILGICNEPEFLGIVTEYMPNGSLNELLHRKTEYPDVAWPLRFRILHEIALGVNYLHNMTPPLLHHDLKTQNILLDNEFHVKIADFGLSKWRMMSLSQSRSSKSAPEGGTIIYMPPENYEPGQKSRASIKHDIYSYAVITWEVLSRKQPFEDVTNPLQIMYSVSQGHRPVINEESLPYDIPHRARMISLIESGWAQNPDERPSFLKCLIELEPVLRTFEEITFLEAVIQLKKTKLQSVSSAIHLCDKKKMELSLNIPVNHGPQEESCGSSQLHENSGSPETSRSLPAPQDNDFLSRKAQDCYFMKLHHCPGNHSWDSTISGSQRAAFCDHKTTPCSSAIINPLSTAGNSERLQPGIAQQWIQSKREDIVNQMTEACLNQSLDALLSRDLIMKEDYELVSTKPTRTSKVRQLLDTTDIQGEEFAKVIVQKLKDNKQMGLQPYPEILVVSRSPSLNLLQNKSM
PROPERTY: IC50

Measured IC50 for this entry CC(C)(C)NS(=O)(=O)c1cncc(-c2ccn3nc(N)nc3c2)c1 on Receptor-interacting serine/threonine-protein kinase 2 (Homo sapiens): > 10 µM

---

TARGET_SYSTEM: Bromodomain-containing protein 3 (Homo sapiens, UniProt Q15059)
Sequence (Q15059 whole entry): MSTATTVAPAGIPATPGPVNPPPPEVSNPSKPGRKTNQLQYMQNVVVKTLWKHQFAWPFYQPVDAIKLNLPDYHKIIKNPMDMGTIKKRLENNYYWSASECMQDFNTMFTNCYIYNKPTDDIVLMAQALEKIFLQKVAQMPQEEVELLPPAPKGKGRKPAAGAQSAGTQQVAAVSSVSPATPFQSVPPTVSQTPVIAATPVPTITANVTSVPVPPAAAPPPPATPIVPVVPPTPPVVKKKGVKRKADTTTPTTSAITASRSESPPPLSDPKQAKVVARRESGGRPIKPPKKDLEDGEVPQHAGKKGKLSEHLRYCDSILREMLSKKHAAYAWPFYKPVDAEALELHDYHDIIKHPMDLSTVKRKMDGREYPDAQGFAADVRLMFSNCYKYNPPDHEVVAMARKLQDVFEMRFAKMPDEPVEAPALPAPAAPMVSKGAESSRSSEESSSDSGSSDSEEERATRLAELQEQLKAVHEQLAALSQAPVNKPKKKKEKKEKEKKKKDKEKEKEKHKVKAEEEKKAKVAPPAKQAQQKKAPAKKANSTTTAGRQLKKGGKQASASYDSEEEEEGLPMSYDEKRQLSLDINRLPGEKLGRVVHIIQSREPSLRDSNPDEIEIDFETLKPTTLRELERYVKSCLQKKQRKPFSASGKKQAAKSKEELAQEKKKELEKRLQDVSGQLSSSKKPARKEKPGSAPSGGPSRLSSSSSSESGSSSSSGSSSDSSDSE
EXPERIMENTAL_DETAILS: Inhibition of BRD3
PROPERTY: IC50

Per the record, CC(C)(C)NS(=O)(=O)c1cncc(-c2ccn3nc(N)nc3c2)c1 has IC50 of > 10 µM
